Source listed as patent US9394261B2.

- Test system: SK-Hep-1 cell lines (a hepatocellular carcinoma (HCC) cell)
- assay.text: MTT assay, growth inhibition of SK-Hep-1 cells
- Type: cell-based
- test.parameters: Homo sapiens, SK-HEP1, 48 h, SK-Hep-1 cells, 48 hours
- Experimental: MTT assay was used to measure growth inhibition. […] MTT (3-(4,5-dimethylthiazol-2-yl)-2,5-diphenyl tetrazolium bromide) assay was performed as follow. The effect of individual test compounds on cell viability was assessed by using the MTT in 6 replicates. […] Absorbance at 570 nm was determined on a plate reader. The SK-Hep1 cells were then analyzed with western blot assay and MTT assay.
pIC50: −log10 of the molar value.
# Lookup of reported pIC50 keyed by entry

Please review the entries below; each comes with its answer.
compound="C#Cc1cccc(Nc2ccnc(Nc3cccc(C#C)c3)n2)c1 [Compound 6]" property_label=pIC50 value_measured="> 5.00"
compound="C#Cc1cccc(Nc2nc(Cl)nc3cc(OC)c(OC)cc23)c1 [Compound 8]" property_label=pIC50 value_measured="> 5.00"
compound="FC(F)(F)c1cc(Nc2ccnc(Cl)n2)ccc1Cl [Compound 3]" property_label=pIC50 value_measured="< 4.40"
compound="C#Cc1cccc(Nc2nc(Nc3cccc(CC)c3)nc3cc(OC)c(OC)cc23)c1 [Compound 26]" property_label=pIC50 value_measured="> 5.00"

Query compound follows.
Query: pIC50; subject: Clc1cccc(Nc2ccnc(Cl)n2)c1 [Compound 2]
Reply: < 4.40

---

- Test system: SK-Hep-1 cell lines (a hepatocellular carcinoma (HCC) cell)
- assay.text: MTT assay, growth inhibition of SK-Hep-1 cells
- Format: cell-based
- test.parameters: Homo sapiens, SK-HEP1, 48 h, SK-Hep-1 cells, 48 hours
In this section we review reported IC50 values for a set of compounds.

chemical_string=C#Cc1cccc(Nc2nc(Nc3cccc(NS(=O)(=O)c4ccc(C(F)(F)F)cc4Br)c3)nc3cc(OC)c(OC)cc23)c1 property_label=IC50 value_measured="< 10 µM"
chemical_string=COc1cc2nc(Cl)nc(Nc3ccc(O)cc3C)c2cc1OC property_label=IC50 value_measured="> 40 µM"
chemical_string=COc1cc2nc(Cl)nc(Nc3cccc(O)c3)c2cc1OC property_label=IC50 value_measured="> 40 µM"
chemical_string=C#Cc1cccc(Nc2nc(NCc3ccc(OC)c(OC)c3)nc3cc(OC)c(OC)cc23)c1 property_label=IC50 value_measured="< 10 µM"
chemical_string=C#Cc1cccc(Nc2nc(Nc3ccc(Cl)c(C(F)(F)F)c3)nc3cc(OC)c(OC)cc23)c1 property_label=IC50 value_measured="< 10 µM"

Query: # input compound: `C#Cc1cccc(Nc2ccnc(Cl)n2)c1` ; wanted: its IC50
Reply: > 40 µM

---

Each record here notes measured pIC50.
- Tested on: SK-Hep-1 cell lines (a hepatocellular carcinoma (HCC) cell)
- assay.text: MTT assay, growth inhibition of SK-Hep-1 cells
- Format: cell-based
- test.parameters: SK-Hep-1 cells, 48 hours
Note on units: pIC50 is unitless, being -log10 of a concentration expressed in mol/L.

chemical_string=C#Cc1cccc(Nc2nc(NCc3cccc(OC(F)(F)F)c3)nc3cc(OC)c(OC)cc23)c1 value_measured=5.59
chemical_string=COc1cc2nc(Cl)nc(Nc3ccc(Oc4ccccc4)cc3)c2cc1OC value_measured=4.82
chemical_string=C#Cc1cccc(Nc2nc(Nc3cccc(Oc4ccc(C#N)cc4)c3)nc3cc(OC)c(OC)cc23)c1 value_measured=5.41

Next compound, please.
Query: Item: `C#Cc1cccc(Nc2nc(NCc3ccc(Cl)c(C(F)(F)F)c3)nc3cc(OC)c(OC)cc23)c1` Test system: SK-Hep-1 cell lines (a hepatocellular carcinoma (HCC) cell) Read-out: pIC50 Value: ?
Reply: 5.59
